Tested on: Plasmodium falciparum
Test Method Notes: NOVARTIS: Inhibition of Plasmodium falciparum W2 (drug-resistant) proliferation in erythrocyte-based infection assay
Type: functional, organism-based
Condition Context: Plasmodium falciparum, W2; read-out: EC50
Measurement Kind: EC50 (nM)
Answer format: numeric, nM implied, no suffix.

A selection of reference data follows.
INSERT INTO assay_data (compound, target_desc, measured) VALUES
  ('COc1ccc(/C=C\c2nc(=O)c3ccccc3o2)cc1', 'Plasmodium falciparum', 587),
  ('Cc1cc(Nc2cccc(F)c2)nc(NCc2ccccc2)n1', 'Plasmodium falciparum', 664),
  ('COc1cc2c(OC3OCC(OC)C(OC)C3O)c3c(c(-c4ccc5c(c4)OCO5)c2cc1OC)C(=O)OC3 (stereo not given)', 'Plasmodium falciparum', 28.3);

Proceeding to the next compound to report its EC50.
So, CCOc1ccc(-c2cn3c([n+]2Cc2ccccc2)SCCC3)cc1 ? Its EC50 was 1090

---

Test Method Notes: NOVARTIS: Cytotoxicity against human hepatocellular carcinoma cell line (Huh7)
Assay type: toxicity, cell-based, Huh-7
Condition Context: Huh7 cells (hepatocellular carcinoma cell line)
Measurement Kind: CC50

Please review the entries below; each comes with its answer.
INSERT INTO measurements (compound, measurement_kind, measured) VALUES
  ('CN(CCCNc1ccnc2cc(Cl)ccc12)C(=O)c1ccc(-c2ccccc2)cc1', 'CC50', '10.1 µM'),
  ('COc1ccc(C(C)=O)cc1N1C(=O)C2C(C1=O)C1(c3ccccc3)C(=O)C2(c2ccccc2)C(c2ccc(C)cc2)=C1c1ccc(C)cc1 (stereo not given)', 'CC50', '> 100 µM'),
  ('O=C1CCC(c2ccc(Cl)c(Cl)c2)c2ccc(O)cc21 (stereo not given)', 'CC50', '> 9.27 µM');

compound COc1ccccc1NC(=O)c1n[nH]c(=O)c2ccccc12 , CC50 observed: > 10 µM

Looking up Cc1cc(C)n(-c2ncc(-c3ccc([N+](=O)[O-])cc3)cn2)n1 , I found its CC50 recorded as > 100 µM

---

Test Method Notes: NOVARTIS: Cytotoxicity against human hepatocellular carcinoma cell line (Huh7)
Assay type: toxicity, cell-based, Huh-7
Condition Context: Huh7 cells (hepatocellular carcinoma cell line)
Measurement Kind: CC50

// solved cases for CC50 follow
INSERT INTO measurements (compound, measured) VALUES
  ('OCCNc1nc(Nc2ccc(Cl)c(Cl)c2)nc2ccccc12', '9.4 µM'),
  ('Cc1cc(Cl)c(S(=O)(=O)N2CCCC2)cc1OCC(=O)NC1CCCCC1', '> 100 µM'),
  ('CCN(CC)Cc1ccc2c(NC(=O)c3ccc(C)s3)c(C(=O)OC)sc2n1', '1.24 µM'),
  ('CC[n+]1c(/C=C(C)/C=C2\Sc3ccccc3N2CCO)sc2ccccc21', '> 10 µM'),
  ('CCN(CC)CCCNc1nc2cc(OC)c(OC)cc2c2nc(-c3ccccc3)nn12', '> 100 µM');

Lab note: Nc1cc(C(=O)Nc2cccc(C3=NCCN3)c2)ccc1C(=O)Nc1cccc(C2=NCCN2)c1 gave CC50 of > 100 µM

Documented CC50 of CCCCCCCCCC(=O)N(C)CCCNc1ccnc2cc(Cl)ccc12 : 5.71 µM

---

Test Method Notes: NOVARTIS: Cytotoxicity against human hepatocellular carcinoma cell line (Huh7)
Format: toxicity, cell-based, Huh-7
Condition Context: Huh7 cells (hepatocellular carcinoma cell line)
Measurement Kind: CC50

INSERT INTO assay_data (compound, measurement_kind, measured) VALUES
  ('Brc1ccc2ncnc(NCC3CCCO3)c2c1 (configuration not stated)', 'CC50', '> 100 µM'),
  ('CCN(CC)c1ccc2c(C)cc(Nc3ccccc3)[o+]c2c1', 'CC50', '> 10 µM'),
  ('Cc1nc(-c2ccc[n+](C)c2)sc1C(=O)/C=C/c1ccc(Cl)cc1', 'CC50', '> 10 µM');

Entry O=[N+]([O-])c1ccc2nc(Nc3ccc(Cl)c(Cl)c3)c(Nc3ccc(Cl)c(Cl)c3)nc2c1 — recorded CC50 = > 85.4 µM

Reported CC50 for C1CCC(CN2CCc3nc(N4CCCCC4)sc3C2)CC1 was > 10 µM

The reported value for O=C(Nc1ccc(N2CCCCC2)cc1)N1CCc2nc[nH]c2C1c1ccc(Cl)cc1 (configuration not stated) in terms of CC50 is > 5.04 µM

Entry under test: COc1ccc(OC)c(-c2csc(N(CCCN(C)C)C(=O)Cc3ccccc3)n2)c1 . Its CC50 was 17.7 µM

Reported CC50 of COc1cc(Br)c(/C=C2\Sc3ccccc3C2=O)cc1OC : > 10 µM

Recorded result, CCC(C)NCC(O)(c1ccc(Cl)cc1)c1ccc(Cl)cc1 (configuration not stated) , CC50: 46.3 µM

Lookup result for Cc1cccc2cc(C(c3nnnn3C3CCCC3)N3CCCC4(CCCCC4)C3)c(=O)[nH]c12 (configuration not stated) ; measured CC50: > 10 µM

Lab note: measured CC50 of Brc1cccc(CNC2CCN(CCc3ccccc3)CC2)c1 was 22.9 µM

---

Tested on: Huh-7
Test Method Notes: NOVARTIS: Cytotoxicity against human hepatocellular carcinoma cell line (Huh7)
Assay type: toxicity, cell-based
Condition Context: huh-7, read-out: CC50
Recorded CC50, one value per entry.

Previously resolved entries follow.
INSERT INTO results (compound, measured) VALUES
  ('O=C1NC(=Nc2ccccc2)S/C1=C/c1ccc(F)c(Br)c1', '> 100 µM'),
  ('COc1ccc(C=C2SC(Nc3ccc(F)cc3)=NC2=O)c(OC)c1', '12 µM'),
  ('CCCCN1C(=Cc2cccc[n+]2C)Sc2cc(NC(C)=O)ccc21', '> 10 µM'),
  ('CC[n+]1c(C=CN(C)c2ccccc2)sc2ccc(OC)cc21', '> 10 µM'),
  ('CC[n+]1c(/C=C/c2ccc(N(C)C)cc2)sc2cc(NC(C)=O)ccc21', '> 100 µM');

// sample C[n+]1ccccc1C=Cc1cc(Br)ccc1O , its CC50 was > 100 µM

---

Overview of recorded pEC50 for various compounds
Tested on: Plasmodium falciparum
Test Method Notes: NOVARTIS: Inhibition of Plasmodium falciparum 3D7 (drug-susceptible) proliferation in erythrocyte-based infection assay
Format: functional, organism-based
Condition Context: Plasmodium falciparum, 3D7
Keep it numeric: pEC50 is minus log10 of the concentration in mol/L.

The following compounds have reported results that may help.
INSERT INTO assay_data (compound, measured) VALUES
  ('Cc1ccc2nc(Nc3nc(O)c4ccccc4n3)nc(C)c2c1', 6.24),
  ('O=C1C(=Cc2ccccc2)Oc2c1ccc(O)c2CN1CCCCC1', 5.85);

The reported value for c1ccc2cc3c(NCCN4CCOCC4)ccnc3cc2c1 in terms of pEC50 is 6.51

// field: pEC50; key: CN(C)CCCn1c(N)c(-c2nc3ccccc3[nH]2)c2nc(C#N)c(C#N)nc21 ; value = 6.33

Record summary for Cc1cc(C)[n+]2nc(N)c3ccccc3c2n1.[O-][Cl+3]([O-])([O-])[O-] : reported pEC50 = 6.61

Short answer for COc1cc(NC(C)CCCN(Cc2ccc(Cl)cc2)C(=O)c2ccc(Cl)cc2Cl)c2ncccc2c1 (stereo unspecified) : pEC50 was 6.42

Data point: Cc1nc2c(C)cccc2c(O)c1CC=C(Cl)Cl ; pEC50 = 5.95

Field pEC50 (entry Oc1ccccc1-c1nc2ncccn2c1Nc1cccc(C(F)(F)F)c1 ) reads 5.67

Record c1ccc(N=Nc2nnc(Nc3ccccc3)s2)cc1 , field pEC50: 6.02

Field pEC50 (entry O=C(NC(CN1CCCC1)c1ccccc1)C1CCCCN1S(=O)(=O)c1ccc(Cl)cc1 (stereo unspecified) ) reads 6.72

Measured pEC50, CCn1ccccc1=Nc1cccc[n+]1CC : 5.82

---

# EC50 annotations
System: Plasmodium falciparum
Test Method Notes: NOVARTIS: Inhibition of Plasmodium falciparum 3D7 (drug-susceptible) proliferation in erythrocyte-based infection assay
Type: functional, organism-based
Condition Context: Plasmodium falciparum, 3D7
Give the number; nM is assumed, so skip it.

Examples from the recorded data:
INSERT INTO assay_data (molecule, measurement_kind, measured) VALUES
  ('CCOC(=O)C1=C(C)N=c2sc(=Cc3cc(Br)ccc3O)c(=O)n2C1c1ccc(OC)c(OC)c1 (stereo not given)', 'EC50', 2100),
  ('COC(=O)C1=C(C)NC2=C(C(=O)CC(c3ccccc3)C2)C1c1ccc(Cl)cc1 (stereo not given)', 'EC50', 1220),
  ('CC[n+]1c(SC)ccc2cc(OC)ccc21', 'EC50', 92.4);

The molecule listed as CCOC(=O)C1=C(C)NC2=C(C(=O)CCC2)C1c1ccc([N+](=O)[O-])cc1 (stereo not given) has a reported EC50 of 902

The recorded EC50 for entry Oc1ccc(CN2CCCCC2)nc1-c1ccccc1 equals 241

Note to self: EC50 recorded for CC[n+]1c(C)n(-c2ccccc2)c2ccc(C3Nc4ccccc4S3)cc21 (stereo not given) was 1180

Notebook: COc1ccc(OCC(O)CNC2CCN(CC(O)COc3ccc(Cl)c(Cl)c3)CC2)cc1 (stereo not given) , EC50 read as 328

Entry under test: CCOC(=O)c1cnc2ccccc2c1Nc1ccc(OC)c(OC)c1 . Its EC50 was 66.5
